- system.tested: Arachidonate 15-lipoxygenase (Oryctolagus cuniculus)
- protocol.text: In vitro inhibitory activity of compound on rabbit reticulocyte 15-lipoxygenase
Measured pIC50, listed per entry for reference.
Quick note: pIC50 means taking -log10 of the concentration in moles per liter.

smiles.text	readout.kind	value
O=C(Nc1ccc(O)c(O)c1)c1ccc(NCc2ccccc2O)cc1	pIC50	6.00
O=C(Nc1ccc(O)c(O)c1)c1ccc(NC(=O)c2ccccc2O)cc1	pIC50	5.90
O=C(/C=C/c1ccc(NC(=O)c2ccccc2O)cc1)Nc1ccc(O)c(O)c1	pIC50	5.83
O=C(CCc1ccc(NC(=O)c2ccccc2O)cc1)Nc1ccc(O)c(O)c1	pIC50	5.84

API: the following record is the query input.
Incoming: Form field: reported pIC50 of "O=C(Nc1ccc(NC(=O)c2ccccc2O)cc1)Nc1ccc(O)c(O)c1"
Outgoing: 5.82

Where do the numbers come from? From BindingDB's records for doi:10.1016/s0960-894x(03)00528-6.
